The following molecules each carry a recorded Ki for Amyloid-beta precursor protein (Homo sapiens, UniProt P05067).
Recorded metric: Ki (nM)

Compound structure | Ki, nM
COc1cccc(/C=C2\COc3ccc(Br)cc3C2=O)c1 | 73.5

(a) O=C1/C(=C/c2ccccc2)COc2ccc(Br)cc21
(b) COc1ccc(/C=C2\COc3ccc(Br)cc3C2=O)cc1
(c) COc1cc(/C=C2\COc3ccc(Br)cc3C2=O)ccc1O
(d) COc1cc(/C=C2\COc3ccc(Br)cc3C2=O)cc(OC)c1
Q: Endpoint returns the given molecules ordered by ascending Ki. Labels, ranked as asked.
A: b, d, a, c

These measurements were taken from ChEMBL document CHEMBL3124902.
